- EXPERIMENTAL_PROTOCOL: Single subcutaneous dose pharmacokinetics in irradiated and unirradiated mice
- Format: in vivo, C57BL/6 mice
- RUN_PARAMETERS: male, C57BL/6, mouse, plasma, sc, 1 mg/kg, single SC dose 1 mg/kg; healthy mice; M; read-out: Cmax
ASSAY_READOUT: Cmax (ng/mL)
Answer in ng/mL, number only, no unit symbol.

Entry under review: CCCCCCCC/C=C\CCCCCCCCOP(O)(O)=S . Reported Cmax? 570

----------
- ASSAY_SYSTEM: Human LPA3 (Homo sapiens, UniProt Q9UBY5)
- Construct: expressed in transfected cells; host or cells: mouse embryonic fibroblasts (MEF) or rat hepatoma RH7777
- Sequence (Q9UBY5 whole entry): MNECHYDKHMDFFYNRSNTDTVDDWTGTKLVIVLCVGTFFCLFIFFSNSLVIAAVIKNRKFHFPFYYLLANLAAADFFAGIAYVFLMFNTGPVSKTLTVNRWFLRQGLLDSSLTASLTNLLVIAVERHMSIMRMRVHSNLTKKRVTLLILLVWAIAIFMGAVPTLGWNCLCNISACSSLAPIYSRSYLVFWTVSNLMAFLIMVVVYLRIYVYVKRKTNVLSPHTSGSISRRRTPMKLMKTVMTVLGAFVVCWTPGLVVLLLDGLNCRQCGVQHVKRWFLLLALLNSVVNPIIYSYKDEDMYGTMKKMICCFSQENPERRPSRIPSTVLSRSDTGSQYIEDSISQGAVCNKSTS
- EXPERIMENTAL_PROTOCOL: Calcium-mobilization assay (FURA-2), human LPA3 transfected cells
- Format: cell-based
- RUN_PARAMETERS: LPA3 DKO MEF, human; mean; read-out: EC50
ASSAY_READOUT: EC50

Entry under review: CCCCCCCC/C=C\CCCCCCCCOP(=O)(O)O [Rx200, oleyl phosphate] . Reported EC50? > 5 µM

----------
- EXPERIMENTAL_PROTOCOL: Single subcutaneous dose pharmacokinetics in irradiated and unirradiated mice
- Format: in vivo, C57BL/6 mice
- RUN_PARAMETERS: both sexes, C57BL/6, mouse, plasma, sc, 1 mg/kg, single SC dose 1 mg/kg; + IR (irradiated mice); whole group (not split by gender); read-out: AUCINF_obs
- Method: We performed a randomized, open-label, single-dose, four-arm, subcutaneously-administered, study of the pharmacokinetics of Rx100.Ammonia and Rx100.Lysine in irradiated and unirradiated C57BL/6 mice to evaluate the effect of salt form and irradiation on extravascular pharmacokinetics. […] TLDs were used for dosimetry and confirmation of the delivered dose. TLDs were analyzed by MD Anderson and have a +/−5% accuracy. A total of 19 dosimeters were used with a mean measured dose of 15.33±0.166 Gy. […]
ASSAY_READOUT: AUC(0-inf) (µg·h/mL)
Answer in µg·h/mL, number only, no unit symbol.

Entry under review: CCCCCCCC/C=C\CCCCCCCCOP(O)(O)=S . Reported AUC(0-inf)? 1.21

----------
- EXPERIMENTAL_PROTOCOL: Single subcutaneous dose pharmacokinetics in irradiated and unirradiated mice
- Assay type: in vivo, C57BL/6 mice
- RUN_PARAMETERS: male, C57BL/6, mouse, plasma, sc, 1 mg/kg, IR males; single SC dose 1 mg/kg; read-out: AUC
ASSAY_READOUT: AUC
# answer = value followed by unit

Entry under review: CCCCCCCC/C=C\CCCCCCCCOP(O)(O)=S . Reported AUC? 1170 ng·h/mL

----------
- EXPERIMENTAL_PROTOCOL: Subcutaneous and intravenous pharmacokinetics in healthy and irradiated Rhesus Macaques
- Format: in vivo
- RUN_PARAMETERS: male, rhesus monkey, plasma, sc, 1 mg/kg, SC 1 mg/kg, healthy; Average of 6 animals
ASSAY_READOUT: AUC (ng·h/mL)
Answer in ng·h/mL, number only, no unit symbol.

Entry under review: CCCCCCCC/C=C\CCCCCCCCOP(O)(O)=S . Reported AUC? 63700

----------
- EXPERIMENTAL_PROTOCOL: Subcutaneous and intravenous pharmacokinetics in healthy and irradiated Rhesus Macaques
- Assay type: in vivo
- RUN_PARAMETERS: male, rhesus monkey, plasma, iv, 1 mg/kg, IV, healthy; 1 mg/kg; read-out: half-life (converted)
ASSAY_READOUT: half-life (min)
Answer in min, number only, no unit symbol.

Entry under review: CCCCCCCC/C=C\CCCCCCCCOP(O)(O)=S [Rx100.L-Lysine] . Reported half-life? 984

----------
- EXPERIMENTAL_PROTOCOL: Solubility measurement by gravimetric method in various solvents
- Format: physicochemical
- RUN_PARAMETERS: aqueous with cosolvent or surfactant or cyclodextrin, thermodynamic from solid; EtOH:water (v/v) [1:1]; 50° C.
ASSAY_READOUT: solubility

Entry under review: CCCCCCCC/C=C\CCCCCCCCOP(O)(O)=S . Reported solubility? > 68 mg/mL

----------
- EXPERIMENTAL_PROTOCOL: Solubility measurement by gravimetric method in various solvents
- Type: physicochemical
- RUN_PARAMETERS: organic solvent or mixture, thermodynamic from solid; EtOH; 50° C.
ASSAY_READOUT: solubility (µg/mL)
Answer in µg/mL, number only, no unit symbol.

Entry under review: CCCCCCCC/C=C\CCCCCCCCOP(O)(O)=S [Rx100.L-Lysine] . Reported solubility? 3000

----------
- ASSAY_SYSTEM: LPA5 (Homo sapiens, UniProt Q9H1C0)
- Construct: expressed in transfected cells; host or cells: B103 rat neuroblastoma
- Sequence (Q9H1C0 whole entry): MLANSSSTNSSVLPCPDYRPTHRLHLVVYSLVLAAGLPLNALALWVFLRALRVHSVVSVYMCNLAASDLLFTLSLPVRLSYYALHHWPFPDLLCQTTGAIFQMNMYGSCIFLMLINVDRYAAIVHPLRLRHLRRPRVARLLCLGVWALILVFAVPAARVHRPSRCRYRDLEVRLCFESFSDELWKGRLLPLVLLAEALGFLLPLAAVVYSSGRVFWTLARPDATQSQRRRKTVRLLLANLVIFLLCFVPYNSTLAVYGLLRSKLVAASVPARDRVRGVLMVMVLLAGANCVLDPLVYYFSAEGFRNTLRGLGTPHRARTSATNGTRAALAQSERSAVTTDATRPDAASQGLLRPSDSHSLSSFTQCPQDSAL
- EXPERIMENTAL_PROTOCOL: Calcium-mobilization assay (FURA-2), LPA5 in B103 neuroblastoma cells
- Format: cell-based
- RUN_PARAMETERS: LPA5 B103, human; mean; read-out: EC50
ASSAY_READOUT: pEC50
Reminder that pEC50 means the negative base-10 logarithm of the concentration expressed in mol/L.

Provide value of pEC50 for this record tested with LPA5 (Homo sapiens, UniProt Q9H1C0): CCCCCCCC/C=C\CCCCCCCCOP(=O)(O)O [Rx200, oleyl phosphate] 6.78

----------
- EXPERIMENTAL_PROTOCOL: Solubility measurement by gravimetric method in various solvents
- Type: physicochemical
- RUN_PARAMETERS: aqueous with cosolvent or surfactant or cyclodextrin, thermodynamic from solid; IPA:water (v/v) [1:1]; 25° C.
- Procedure: In addition, the Rx100 L-Lysate salt was further characterized under abbreviated polymorph evaluation. First, the solubility measurement by gravimetric method was performed. Briefly, excess amount of solid was slurried in various solvents at ambient conditions and elevated temperature (50° C.) for minimum of 24 hours. […] Table 15 presents the solubility data measured using this gravimetric method in various solvents for the L-Lysine salt. […]
ASSAY_READOUT: solubility

Entry under review: CCCCCCCC/C=C\CCCCCCCCOP(O)(O)=S . Reported solubility? > 40 mg/mL

----------
- EXPERIMENTAL_PROTOCOL: Subcutaneous and intravenous pharmacokinetics in healthy and irradiated Rhesus Macaques
- Type: in vivo
- RUN_PARAMETERS: male, rhesus monkey, plasma, iv, 1 mg/kg, IV 1 mg/kg, healthy; individual animals (ID in c1)
ASSAY_READOUT: AUC (ng·h/mL)
Answer in ng·h/mL, number only, no unit symbol.

Entry under review: CCCCCCCC/C=C\CCCCCCCCOP(O)(O)=S . Reported AUC? 73500

----------
- EXPERIMENTAL_PROTOCOL: Solubility measurement by gravimetric method in various solvents
- Format: physicochemical
- RUN_PARAMETERS: aqueous with cosolvent or surfactant or cyclodextrin, thermodynamic from solid; IPA:water (v/v) [3:7]; 25° C.
ASSAY_READOUT: solubility

Entry under review: CCCCCCCC/C=C\CCCCCCCCOP(O)(O)=S [Rx100.L-Lysine] . Reported solubility? > 46 mg/mL

----------
- ASSAY_SYSTEM: Human LPA4 (Homo sapiens, UniProt Q99677)
- Construct: expressed in transfected cells; host or cells: CHO
- Sequence (Q99677 whole entry): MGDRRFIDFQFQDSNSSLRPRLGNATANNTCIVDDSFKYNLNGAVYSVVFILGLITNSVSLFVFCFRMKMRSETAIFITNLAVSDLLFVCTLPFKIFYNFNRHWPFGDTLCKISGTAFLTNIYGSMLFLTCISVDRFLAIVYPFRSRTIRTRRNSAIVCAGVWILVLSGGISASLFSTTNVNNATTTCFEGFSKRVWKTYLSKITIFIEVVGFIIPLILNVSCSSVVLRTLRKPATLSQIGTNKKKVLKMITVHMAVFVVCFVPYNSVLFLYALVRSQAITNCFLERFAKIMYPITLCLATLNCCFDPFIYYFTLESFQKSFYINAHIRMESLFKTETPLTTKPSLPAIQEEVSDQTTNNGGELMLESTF
- EXPERIMENTAL_PROTOCOL: Calcium-mobilization assay (FURA-2), human LPA4 in CHO cells
- Format: cell-based
- RUN_PARAMETERS: LPA4 CHO, human; mean; read-out: EC50
ASSAY_READOUT: EC50 (nM)
Answer in nM, number only, no unit symbol.

Entry under review: CCCCCCCC/C=C\CCCCCCCCOP(=O)(O)O [Rx200, oleyl phosphate] . Reported EC50? 737

----------
- EXPERIMENTAL_PROTOCOL: Single subcutaneous dose pharmacokinetics in irradiated and unirradiated mice
- Type: in vivo, C57BL/6 mice
- RUN_PARAMETERS: male, C57BL/6, mouse, plasma, sc, 1 mg/kg, healthy males; single SC dose 1 mg/kg; read-out: Cmax
ASSAY_READOUT: Cmax (ng/mL)
Answer in ng/mL, number only, no unit symbol.

Entry under review: CCCCCCCC/C=C\CCCCCCCCOP(O)(O)=S [Rx100.L-Lysine] . Reported Cmax? 570

----------
- EXPERIMENTAL_PROTOCOL: Single subcutaneous dose pharmacokinetics in irradiated and unirradiated mice
- Assay type: in vivo, C57BL/6 mice
- RUN_PARAMETERS: female, C57BL/6, mouse, plasma, sc, 1 mg/kg, single SC dose 1 mg/kg; irradiated mice (15.6 Gy, dosed 26 ± 2 h after); F; read-out: Cmax
ASSAY_READOUT: Cmax (ng/mL)
Answer in ng/mL, number only, no unit symbol.

Entry under review: CCCCCCCC/C=C\CCCCCCCCOP(O)(O)=S . Reported Cmax? 355

----------
- EXPERIMENTAL_PROTOCOL: Solubility measurement by gravimetric method in various solvents
- Type: physicochemical
- RUN_PARAMETERS: aqueous with cosolvent or surfactant or cyclodextrin, thermodynamic from solid; MeOH:water (v/v) [3:7]; 25° C.
ASSAY_READOUT: solubility

Entry under review: CCCCCCCC/C=C\CCCCCCCCOP(O)(O)=S . Reported solubility? > 48 mg/mL
